test details: Toxicity in Trypanosoma brucei brucei S427 infected NMRI mouse model of stage-1 human African trypanosomiasis dosed intraperitoneally twice per day for 3 days
Assay type: organism-based
conditions used: in vivo, ip
property measured: MTD at 72 h (mg/kg)
Output spec: scalar in mg/kg, unitless text.

The recorded MTD at 72 h for entry `CNC(=O)[C@H]1Cc2ccccc2N1C(=O)Cc1ccc(F)cc1` equals 15
